Values compiled from PubChem BioAssay AID624330.

# TGT: Rac GTPase-activating protein 1 (Homo sapiens) (UniProt Q9H0H5)
# Sequence (Q9H0H5 whole entry, looked up): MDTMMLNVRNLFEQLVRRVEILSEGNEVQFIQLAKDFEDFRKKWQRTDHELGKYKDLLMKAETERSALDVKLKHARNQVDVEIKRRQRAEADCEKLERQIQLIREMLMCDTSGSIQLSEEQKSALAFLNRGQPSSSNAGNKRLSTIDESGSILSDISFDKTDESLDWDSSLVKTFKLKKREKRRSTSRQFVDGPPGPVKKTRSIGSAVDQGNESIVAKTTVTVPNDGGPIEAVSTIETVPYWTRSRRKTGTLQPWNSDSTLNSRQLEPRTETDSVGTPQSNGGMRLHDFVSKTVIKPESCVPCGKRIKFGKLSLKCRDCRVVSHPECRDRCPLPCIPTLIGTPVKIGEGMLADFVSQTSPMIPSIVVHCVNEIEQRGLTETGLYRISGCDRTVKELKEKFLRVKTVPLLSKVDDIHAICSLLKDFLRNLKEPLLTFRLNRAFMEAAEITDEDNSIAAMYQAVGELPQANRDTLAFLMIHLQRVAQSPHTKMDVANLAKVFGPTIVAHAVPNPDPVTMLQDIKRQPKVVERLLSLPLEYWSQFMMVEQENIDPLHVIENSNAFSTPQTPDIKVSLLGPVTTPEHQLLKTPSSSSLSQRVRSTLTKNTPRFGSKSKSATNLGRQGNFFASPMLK
# PROCEDURE SUMMARY: blockers of MgcRacGAP-driven Rac1 GTP hydrolysis – biochemical, ADP Hunter fluorescence, primary and confirmatory, confirmation (AID 624330);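 also: fluorescence reports GDP produced by GAP-driven GTP hydrolysis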
# MEASUREMENT PARAMETERS: MgcRacGAP-stimulated Rac1 GTP hydrolysis, at 30 µM, hits give high values, GST-tagged Rac1 F28L mutant substrate
In all, about 340,000 compounds went through this assay and about 2,100 (0.62%) were called active. A selection follows. Results with a measured potency or affinity are listed apart.
inhibition: recorded values

{"COMPOUND": "COc1cccc(CNc2ccc(F)c(Cl)c2)c1OC", "TGT": "Rac GTPase-activating protein 1 (Homo sapiens) (UniProt Q9H0H5)", "inhibition [%]": 6.64}
{"COMPOUND": "COC(=O)c1ccccc1NC(=O)c1cc(-c2ccc(C)cc2)on1", "TGT": "Rac GTPase-activating protein 1 (Homo sapiens) (UniProt Q9H0H5)", "inhibition [%]": -6.22}
{"COMPOUND": "CC(=O)c1ccc(OCc2cc(C(=O)N3CC[C@@H]4CCCC[C@H]4C3)no2)cc1", "TGT": "Rac GTPase-activating protein 1 (Homo sapiens) (UniProt Q9H0H5)", "inhibition [%]": 8.61}
{"COMPOUND": "COc1ccc(C)cc1NC(=O)NC1CC(=O)N(c2ccc3c(c2)OCCO3)C1 (centres undefined)", "TGT": "Rac GTPase-activating protein 1 (Homo sapiens) (UniProt Q9H0H5)", "inhibition [%]": 10.3}
{"COMPOUND": "COc1ccc(-c2nc3ccccc3s2)cc1NC(C)=O", "TGT": "Rac GTPase-activating protein 1 (Homo sapiens) (UniProt Q9H0H5)", "inhibition [%]": -7.89}
{"COMPOUND": "COc1ccc([C@H]2CC(=O)C=C(c3cccc(F)c3OC)C2)cc1", "TGT": "Rac GTPase-activating protein 1 (Homo sapiens) (UniProt Q9H0H5)", "inhibition [%]": 9.17}
{"COMPOUND": "Cc1ccccc1NC(=O)c1cccc(S(=O)(=O)N2CCCCC2)c1", "TGT": "Rac GTPase-activating protein 1 (Homo sapiens) (UniProt Q9H0H5)", "inhibition [%]": 3.86}
{"COMPOUND": "Oc1cccc(-c2nc3ccccc3s2)c1", "TGT": "Rac GTPase-activating protein 1 (Homo sapiens) (UniProt Q9H0H5)", "inhibition [%]": 8.24}
{"COMPOUND": "Oc1ccc(-c2nc3ccccc3s2)cc1", "TGT": "Rac GTPase-activating protein 1 (Homo sapiens) (UniProt Q9H0H5)", "inhibition [%]": 15.1}
{"COMPOUND": "CC(C)CNc1nc(N)c([N+](=O)[O-])c(NC2CCCCC2)n1", "TGT": "Rac GTPase-activating protein 1 (Homo sapiens) (UniProt Q9H0H5)", "inhibition [%]": 9.84}
{"COMPOUND": "CCOc1ccc(/C=N/NC(=O)C(OC)c2ccccc2)cc1 (centres undefined)", "TGT": "Rac GTPase-activating protein 1 (Homo sapiens) (UniProt Q9H0H5)", "inhibition [%]": 3.79}
{"COMPOUND": "COc1ccccc1C(=O)Nc1ccc(N2CCCCC2)cc1", "TGT": "Rac GTPase-activating protein 1 (Homo sapiens) (UniProt Q9H0H5)", "inhibition [%]": 16.2}
{"COMPOUND": "COc1cccc(OC)c1C(=O)Nc1ccc(N2CCCC2)cc1", "TGT": "Rac GTPase-activating protein 1 (Homo sapiens) (UniProt Q9H0H5)", "inhibition [%]": 19}
{"COMPOUND": "CC(C)CN1CCC(Oc2cccc(C(=O)NCCc3ccccc3)c2)CC1", "TGT": "Rac GTPase-activating protein 1 (Homo sapiens) (UniProt Q9H0H5)", "inhibition [%]": 11.2}
